src = paper PMC5356695

Assay: clinical
Details: human, whole blood, oral, 28 mg/m^2, C4h, geometric mean (CV%), day 5, 28 mg/m^2, n = 3
Experimental: Whole blood samples (2 mL each) for pharmacokinetic analyses were collected at the following time points: <5 minutes before dosing on days 1 through 5 and at 0.5, 1, 2, 4, 8, 24, and 72 hours after drug administration on day 5 of the first week of the first treatment cycle. Blood concentrations of ridaforolimus were determined using a validated liquid chromatography/tandem mass spectrometry assay as in previous ridaforolimus studies (Charles River Laboratories, Shrewsbury, MA). […]
parameter measured: concentration at 4 h (ng/mL)
Field format: number, assumed ng/mL, no unit text.

## Task Entry CO[C@H]1C[C@@H]2CC[C@@H](C)[C@@](O)(O2)C(=O)C(=O)N2CCCC[C@H]2C(=O)O[C@H]([C@H](C)C[C@@H]2CC[C@@H](OP(C)(C)=O)[C@H](OC)C2)CC(=O)[C@H](C)/C=C(\C)[C@@H](O)[C@@H](OC)C(=O)[C@H](C)C[C@H](C)/C=C/C=C/C=C/1C has what concentration at 4 h?
## Result 227

---

experiment: clinical; details: human, whole blood, oral, 28 mg/m2
parameter measured: AUC(0-t) (ng·h/mL)
# unit: ng·h/mL | format: bare number

## Task # query: AUC(0-t) of entry CO[C@H]1C[C@@H]2CC[C@@H](C)[C@@](O)(O2)C(=O)C(=O)N2CCCC[C@H]2C(=O)O[C@H]([C@H](C)C[C@@H]2CC[C@@H](OP(C)(C)=O)[C@H](OC)C2)CC(=O)[C@H](C)/C=C(\C)[C@@H](O)[C@@H](OC)C(=O)[C@H](C)C[C@H](C)/C=C/C=C/C=C/1C [ridaforolimus]
## Result 2330

---

test: clinical; details: human, whole blood, oral, 33 mg/m2, t1/2, geometric mean (CV%), 33 mg/m^2, n = 9
parameter measured: half-life

## Task Can you share its half-life? I mean this compound: CO[C@H]1C[C@@H]2CC[C@@H](C)[C@@](O)(O2)C(=O)C(=O)N2CCCC[C@H]2C(=O)O[C@H]([C@H](C)C[C@@H]2CC[C@@H](OP(C)(C)=O)[C@H](OC)C2)CC(=O)[C@H](C)/C=C(\C)[C@@H](O)[C@@H](OC)C(=O)[C@H](C)C[C@H](C)/C=C/C=C/C=C/1C [ridaforolimus]
## Result 26 h

---

experiment: clinical; settings: human, whole blood, oral, 33 mg/m2, t1/2, arithmetic mean (SD), 33 mg/m^2, n = 9
parameter measured: half-life (h)
Report the figure in h without appending any unit label.

## Task Which half-life is listed for CO[C@H]1C[C@@H]2CC[C@@H](C)[C@@](O)(O2)C(=O)C(=O)N2CCCC[C@H]2C(=O)O[C@H]([C@H](C)C[C@@H]2CC[C@@H](OP(C)(C)=O)[C@H](OC)C2)CC(=O)[C@H](C)/C=C(\C)[C@@H](O)[C@@H](OC)C(=O)[C@H](C)C[C@H](C)/C=C/C=C/C=C/1C ?
## Result 26.9
